System: Escherichia coli
ASSAY DETAILS: Antimicrobial activity against Escherichia coli ATCC 25922 assessed as reduction in bacterial growth incubated for 20 hrs by broth microdilution analysis
Assay type: functional
ENDPOINT LABEL: MIC (µM)
Hi! Could you send only the number? It should be in µM, unit omitted.

Q. Look up and report measured MIC for this entry: COc1ccc2nccc(OC[C@@H]3CC[C@@H](NC(=O)c4ccc(I)c(F)c4)CO3)c2n1
A. 238

Q. Look up and report measured MIC for this entry: COc1ccc2nccc(OC[C@H]3CC[C@H](NC(=O)c4ccc(I)c(F)c4)CC3)c2n1
A. 239

Q. Look up and report measured MIC for this entry: COc1ccc2nccc(CCN3CCC(NC(=O)c4cc(F)c(Cl)c(F)c4)CC3)c2n1
A. 69.4

Q. Look up and report measured MIC for this entry: COc1ccc2nccc(CCN3CCC(NC(=O)c4cc(F)c(Br)c(F)c4)CC3)c2n1
A. 63.3
